- Assayed System: T1, mouse DLL4 extracellular domain (mouse, UniProt Q9JI71 27-532)
- T1 construct: extracellular domain; also called muDLL4 ECD; murine DLL4
- T1 sequence (Q9JI71 27-532): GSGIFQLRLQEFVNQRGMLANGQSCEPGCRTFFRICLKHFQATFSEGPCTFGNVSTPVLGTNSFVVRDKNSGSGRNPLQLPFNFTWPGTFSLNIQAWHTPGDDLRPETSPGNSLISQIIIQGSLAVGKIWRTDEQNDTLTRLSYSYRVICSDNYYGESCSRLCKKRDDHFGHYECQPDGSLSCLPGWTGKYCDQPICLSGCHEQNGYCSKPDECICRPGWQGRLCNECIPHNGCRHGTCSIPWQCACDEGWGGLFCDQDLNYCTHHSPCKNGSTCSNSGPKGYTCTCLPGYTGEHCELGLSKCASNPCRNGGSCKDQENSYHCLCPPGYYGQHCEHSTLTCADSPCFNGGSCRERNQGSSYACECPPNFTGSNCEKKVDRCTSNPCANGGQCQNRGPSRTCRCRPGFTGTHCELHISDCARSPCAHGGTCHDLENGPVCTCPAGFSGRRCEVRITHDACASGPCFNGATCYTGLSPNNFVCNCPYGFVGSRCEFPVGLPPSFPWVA
- Protocol Details: SPR (Biacore)
Measured Attribute: kon (M⁻¹ s⁻¹)

Binder	Measured Attribute	Assay Result
h1A11.A2 (antibody, V domains shown, also called h1A11VH.1 / h1A11.A2 VL) VH: EVQLVESGGGLVQPGGSLRLSCAASGFTFSNFPMAWVRQAPGKGLEWVATISSSDGTTYYRDSVKGRFTISRDNAKNSLYLQMNSLRAEDTAVYYCARGYYNSPFAYWGQGTLVTVSS VL: DIQMTQSPSSLSASVGDRVTITCRASQDIYINLAWYQQKPGKSPKLLIFDTNDLADGVPSRFSGSGSGTDFTLTISSLQPEDFATYYCQQYDYVPPTFGQGTKLEIK	kon	181000
h1A11.F5 (antibody, V domains shown, also called h1A11.F5 VH / h1A11.E12 VL) VH: EVQLVESGGGLVQPGGSLRLSCAASGFTFRHFPMAWVRQAPGKGLEWVATISSSDAWPSYRDSVKGRFTISRDNAKNSLYLQMNSLRAEDTAVYYCARGYYNSPFAYWGQGTLVTVSS VL: DIQMTQSPSSLSASVGDRVTITCRASQEIYRNLAWYQQKPGKSPKLLIFDTSVLADGVPSRFSGSGSGTDSTLTISSLQPEDFATYYCQQYTYYPPTFGQGTKLEIK	kon	143000
h1A11.A6 (antibody, V domains shown, also called h1A11.A6 VH / h1A11VL.1) VH: EVQLVESGGGLVQPGGSLRLSCAASGFTFRHFPMAWVRQAPGKGLEWVATISSSDAWPSYRDSVKGRFTISRDNAKNSLYLQMNSLRAEDTAVYYCSRGYYNSPFAYWGQGTLVTVSS VL: DIQMTQSPSSLSASVGDRVTITCRASEDIYSNLAWYQQKPGKAPKLLIYDTNNLADGVPSRFSGSGSGTDFTLTISSLQPEDFATYYCQQYNNYPPTFGQGTKLEIK	kon	198000
h1A11.1 (antibody, V domains shown, humanized IgG; also called hu1A11.1; VH.1/VL.1 1A11) VH: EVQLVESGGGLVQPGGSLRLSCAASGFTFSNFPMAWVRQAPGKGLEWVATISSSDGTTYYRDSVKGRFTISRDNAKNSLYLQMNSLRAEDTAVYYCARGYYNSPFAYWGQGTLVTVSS VL: DIQMTQSPSSLSASVGDRVTITCRASEDIYSNLAWYQQKPGKAPKLLIYDTNNLADGVPSRFSGSGSGTDFTLTISSLQPEDFATYYCQQYNNYPPTFGQGTKLEIKR	kon	156000
h1A11.A11 (antibody, V domains shown, also called h1A11.A11 VH / h1A11VL.1) VH: EVQLVESGGGLVQPGGSLRLSCAASGFTFRHFPMAWVRQAPGKGLEWVATISSSDDWPNYRDSVKGRFTISRDNAKSSLYLQMNSLRAEDTAVYYCSRGYYNSPFAYWGQGTLVTVSS VL: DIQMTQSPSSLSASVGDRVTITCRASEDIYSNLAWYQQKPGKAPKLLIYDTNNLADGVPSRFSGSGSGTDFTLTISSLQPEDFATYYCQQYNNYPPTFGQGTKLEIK	kon	198000
